Experiment: LTI-291-001 single ascending dose study: plasma pharmacokinetics and food effect
Format: in vivo, human
Details: human, plasma, po, 90 mg, 90 mg fasted, single oral dose, geometric mean
Readout Name: AUC(0-t) (ng·h/mL)
Quick reminder: number only, in ng·h/mL, skip the unit.

# get_value(readout='AUC(0-t)', item= CCCCCO[C@H]1CC[C@H](NC(=O)c2cnn3c(C)cc(C)nc23)CC1 [Compound A] )
47800

----------
Test: LTI-291-002 multiple ascending dose study: plasma and CSF pharmacokinetics
Assay type: in vivo, human
Conditions: 60 mg daily, dose 7, geometric mean
Readout Name: Cavg (ng/mL)
State just the number; it will be interpreted in ng/mL.

Form field: reported Cavg of `CCCCCO[C@H]1CC[C@H](NC(=O)c2cnn3c(C)cc(C)nc23)CC1`
2170

----------
Assay: LTI-291-002 multiple ascending dose study: plasma and CSF pharmacokinetics
Format: in vivo, human
Details: human, plasma, oral, 30 mg, 30 mg daily, dose 14, geometric mean
Readout Name: AUC(0-inf)
Answer by giving the amount and then stating its unit.

What value of AUC(0-inf) has been reported for the following molecule? `CCCCCO[C@H]1CC[C@H](NC(=O)c2cnn3c(C)cc(C)nc23)CC1`
139 µg·h/mL

----------
Experiment: clinical
Settings: both, human, plasma, 60 mg, AUC0-24, 60 mg Compound A alone, Sinemet portion, geometric mean
Readout Name: AUC(0-t) (ng·h/mL)
Please give a number only; it is taken to be in ng·h/mL.

Using the record for `CCCCCO[C@H]1CC[C@H](NC(=O)c2cnn3c(C)cc(C)nc23)CC1` , report its AUC(0-t).
22800

----------
Assay: LTI-291-002 multiple ascending dose study: plasma and CSF pharmacokinetics
Format: in vivo, human
Details: 10 mg daily, dose 7, geometric mean
Readout Name: Cavg (ng/mL)
Field: numeric (ng/mL). Do not append units.

Field request: Cavg | item: CCCCCO[C@H]1CC[C@H](NC(=O)c2cnn3c(C)cc(C)nc23)CC1 [Compound A]
322

----------
Test: BIA 28-6156-106 mass balance recovery, metabolite profiling and PK of 14C-Compound A
Format: in vivo, human
Conditions: male, human, plasma; single oral dose of 60 mg 14C BIA-28; read-out: plasma Cmax, geometric mean
Readout Name: Cmax (ng/mL)
The reply should contain only the number, in ng/mL.

GET /values?readout=Cmax&item= `CCCCCO[C@H]1CC[C@H](NC(=O)c2cnn3c(C)cc(C)nc23)CC1`
1750

----------
Experiment: LTI-291-002 multiple ascending dose study: plasma and CSF pharmacokinetics
Assay type: in vivo, human
Settings: 30 mg daily, dose 7, geometric mean
Readout Name: Cavg

Request the reported Cavg associated with `CCCCCO[C@H]1CC[C@H](NC(=O)c2cnn3c(C)cc(C)nc23)CC1`
1100 ng/mL

----------
Assay: LTI-291-003 multiple dose study in GBA-PD: plasma and CSF pharmacokinetics
Type: in vivo, human
Details: human, plasma, oral, 30 mg, 30 mg daily, dose 1, GBA-PD, geometric mean (% CV)
Readout Name: Cmax (ng/mL)
Response body: numeric value in ng/mL, unit text excluded.

Sample CCCCCO[C@H]1CC[C@H](NC(=O)c2cnn3c(C)cc(C)nc23)CC1 [Compound A] — what was its Cmax?
561

----------
Experiment: LTI-291-001 single ascending dose study: plasma pharmacokinetics and food effect
Format: in vivo, human
Conditions: human, plasma, po, 30 mg, 30 mg fasted, single oral dose, geometric mean; read-out: Vz/F
Readout Name: Vd/F
# number then unit; no other words

Fill in: Vd/F of CCCCCO[C@H]1CC[C@H](NC(=O)c2cnn3c(C)cc(C)nc23)CC1 [Compound A] is ___
40.8 L
